Kindly state pIC50 for each of the entries shown.
Please express pIC50 as -log10 of the molar concentration.

Query block: Please state recorded pIC50 (tested on Neuraminidase (Influenza A virus (A/Puerto Rico/8/1934(H1N1)))) of CCC(CC)N[C@@H]1C=C(C(=O)O)C[C@H](N)[C@H]1NC(C)=O
Result block: 7.96

Query block: Please state recorded pIC50 (tested on Neuraminidase (Influenza A virus (A/Puerto Rico/8/1934(H1N1)))) of CC(=O)N[C@H]1[C@H](N(C)C2CCCCC2)C=C(C(=O)O)C[C@@H]1N
Result block: 6.70

Query block: Please state recorded pIC50 (tested on Neuraminidase (Influenza A virus (A/Puerto Rico/8/1934(H1N1)))) of CC(=O)N[C@@H]1[C@@H](N)CC(C(=O)O)=C[C@H]1NC(=O)C(C)C
Result block: 5.19

Query block: Please state recorded pIC50 (tested on Neuraminidase (Influenza A virus (A/Puerto Rico/8/1934(H1N1)))) of CCC(=O)N[C@@H]1C=C(C(=O)O)C[C@H](N)[C@H]1NC(C)=O
Result block: 5.57

Query block: Please state recorded pIC50 (tested on Neuraminidase (Influenza A virus (A/Puerto Rico/8/1934(H1N1)))) of CCCCN(CC)[C@@H]1C=C(C(=O)O)C[C@H](N)[C@H]1NC(C)=O
Result block: 7.07

Query block: Please state recorded pIC50 (tested on Neuraminidase (Influenza A virus (A/Puerto Rico/8/1934(H1N1)))) of CC(=O)N[C@H]1[C@H](N(C)CCc2ccccc2)C=C(C(=O)O)C[C@@H]1N
Result block: 7.00

Query block: Please state recorded pIC50 (tested on Neuraminidase (Influenza A virus (A/Puerto Rico/8/1934(H1N1)))) of CCCN[C@@H]1C=C(C(=O)O)C[C@H](N)[C@H]1NC(C)=O
Result block: 6.70

Query block: Please state recorded pIC50 (tested on Neuraminidase (Influenza A virus (A/Puerto Rico/8/1934(H1N1)))) of CCCCN(C)[C@@H]1C=C(C(=O)O)C[C@H](N)[C@H]1NC(C)=O
Result block: 6.74

Query block: Please state recorded pIC50 (tested on Neuraminidase (Influenza A virus (A/Puerto Rico/8/1934(H1N1)))) of CCC(CC)N(C)[C@@H]1C=C(C(=O)O)C[C@H](N)[C@H]1NC(C)=O
Result block: 8.22

Query block: Please state recorded pIC50 (tested on Neuraminidase (Influenza A virus (A/Puerto Rico/8/1934(H1N1)))) of CCCN(CC)[C@@H]1C=C(C(=O)O)C[C@H](N)[C@H]1NC(C)=O
Result block: 7.05

Query block: Please state recorded pIC50 (tested on Neuraminidase (Influenza A virus (A/Puerto Rico/8/1934(H1N1)))) of CCC(CC)C(=O)N[C@@H]1C=C(C(=O)O)C[C@H](N)[C@H]1NC(C)=O
Result block: 5.40

Query block: Please state recorded pIC50 (tested on Neuraminidase (Influenza A virus (A/Puerto Rico/8/1934(H1N1)))) of CCCN(CCC)[C@@H]1C=C(C(=O)O)C[C@H](N)[C@H]1NC(C)=O
Result block: 7.92
